tested on: 786-0 renal; assay: NCI-60 one-dose screen, 48 h (100 = growth as untreated, 0 = no growth, -100 = all killed); details: 10 µM unless noted
This is part of a sample that, as a whole, favours compounds with a hit. Of some 83,000 tested, about 20% had one in any assay.
Measured parameter: growth (%)
Provide only the numeric value, understood in %.

Known growth results, listed for orientation:
Smiles structure	Measured parameter	Measurement unit	Readout value
CCN1CCN(CC(=O)Nc2nc3ccc(NCc4ccc(F)cc4)cc3s2)CC1	growth	%	93
O=C1c2ccccc2C(=O)C1c1ccc(Br)cc1	growth	%	93.9
COc1ccc(/C(C)=C(/c2ccc(OCCCN(C)C)cc2)c2ccc(OC(=O)c3ccccc3)cc2)cc1	growth	%	73
COc1cc(OC)c2sc(-c3ccc(-n4cncc4-c4cc(OC)c(OC)c(OC)c4)cc3)nc2c1	growth	%	67.2
O=C1Nc2ccccc2/C1=C/c1cccn1C(=O)c1ccc(Cl)s1	growth	%	85.3

Qu. Data request, read-out growth, for `CC(=O)c1sc2sc(C(C)=O)c(C)c2c1C`
Ans. 89.2

Qu. Data request, read-out growth, for `C/C(=N\O)[C@@H]1CC[C@]2(CO)CC[C@]3(C)[C@H](CC[C@@H]4[C@@]5(C)CCCNC(C)(C)[C@@H]5CC[C@]43C)[C@@H]12`
Ans. 92.3

Qu. Data request, read-out growth, for `O=C(CSc1nc(-c2ccccc2)cc(=O)[nH]1)Nc1nc(-c2ccccc2)cs1`
Ans. 103

###

test system: PC-3 prostate; test: NCI-60 one-dose screen, 48 h; settings: 10 µM unless noted
About 83,000 compounds went through this panel and 20% of them were active in at least one assay; those are over-represented in the sample as a whole. The source made the active and inactive calls. Rule for the calls: active = growth percent below 10; inactive = the rest.
Output constraint: value belongs to active, inactive

Here are 3 molecules together with their reported answers.
Molecule	Class label
CN1C(=O)/C(=C2\SC(=Nc3ccccc3)N(Nc3ccccc3)C2=O)c2ccccc21	inactive
N#CSc1c[nH]c2cccc(/C=C/C(=O)/C=C(O)/C=C/c3cccc4[nH]cc(SC#N)c34)c12	active
O=C(Nc1ccccc1[N+](=O)[O-])c1ccc(Cl)c(Cl)c1	inactive

Qu. What call does the record list for `Cc1ccc(N2C(=O)CCC2=O)cc1` ?
Ans. inactive

Qu. What call does the record list for `Cc1ccc(-c2nc3nc(-c4ccccc4)nc(N4CCCN(S(C)(=O)=O)CC4)c3o2)cc1` ?
Ans. inactive

Qu. What call does the record list for `CN1CCN(Cc2ccc(NC(=O)c3cncc(C#Cc4cnc(N)c5ccc(F)cc45)c3)cc2C(F)(F)F)CC1` ?
Ans. inactive

Qu. What call does the record list for Cc1ccc(C2CC(c3nc(-c4ccc(Cl)cc4)oc3C)=NN2C(=O)c2ccncc2)cc1 (configuration not stated) ?
Ans. inactive

###

test system: HOP-62 NSCLC; experiment: NCI-60 one-dose screen, 48 h; details: 10 µM unless noted
The panel holds about 83,000 compounds, 20% with a hit somewhere; the sample as a whole holds those more often. The source made the active and inactive calls. How the source made its calls: active means growth percent below 10; inactive means the rest.
Output constraint: value belongs to Yes (active), No (inactive)

Here are 2 compounds together with their reported answers.
Compound	Class label
COc1ccc(C2=CC(c3cc(OC)c(OC)c(OC)c3)n3ncnc3N2)cc1 (configuration not stated)	Yes
[2H]C([2H])([2H])Oc1ccc(F)cc1/C=C/C(=O)/C=C(O)/C=C/c1cc(F)ccc1OC([2H])([2H])[2H]	No

Qu. What call does the record list for Cc1[nH]c(C2CC(c3ccc(C(F)(F)F)c(F)c3)=NN2c2ccccc2)c(C)c1C(=O)NCC(F)(F)F (configuration not stated) ?
Ans. No

Qu. What call does the record list for COc1ccc(/C=C/C(c2cc(OC)c(OC)c(OC)c2)n2ccnc2)cc1O (configuration not stated) ?
Ans. No

Qu. What call does the record list for `N#C/C(=C\C=C\c1ccc(-c2cc(Cl)ccc2Cl)o1)c1nc2ccccc2s1` ?
Ans. No

Qu. What call does the record list for `NC(=O)c1c(NC(=O)c2cccs2)sc2c1CCC(=O)C2` ?
Ans. No

Qu. What call does the record list for `CNC(=O)c1cc(Oc2cccc3nc(NC(=O)Nc4cc(C(F)(F)F)ccc4Cl)ccc23)ccn1` ?
Ans. No

Qu. What call does the record list for `COc1ccccc1C(=O)Nc1cccc(NC(=O)c2ccoc2C)c1` ?
Ans. No

Qu. What call does the record list for CCN1C(=O)N(CC)C2C1NC(=S)N2/N=C/c1ccc(OC)cc1 (configuration not stated) ?
Ans. No

Qu. What call does the record list for `O=C1/C=C/[C@@H](O)[C@@H]2C[C@@H](O)C[C@H]2/C=C/CCC[C@H](CCO)O1` ?
Ans. No

Qu. What call does the record list for `COc1cc(OC)c2sc(-c3ccc(-n4cncc4-c4cc(OC)c(OC)c(OC)c4)cc3)nc2c1` ?
Ans. No

Qu. What call does the record list for CCN1C(=O)N(CC)C2C1NN=c1s/c(=C\c3ccc(C(F)(F)F)cc3)c(=O)n12 (configuration not stated) ?
Ans. No

###

test system: SK-MEL-28 melanoma; assay: NCI-60 one-dose screen, 48 h (100 = growth as untreated, 0 = no growth, -100 = all killed); conditions: 10 µM unless noted
About 83,000 compounds went through this panel and 20% of them were active in at least one assay; those are over-represented in the sample as a whole. Active and inactive are the calls of the source. How the source made its calls: active means growth percent below 10; inactive means the rest.
Measured parameter: growth

Known growth results, listed for orientation:
Smiles structure	Measured parameter	Readout value
C[n+]1ccc(CCc2c[nH]c3ccccc23)cc1	growth	100% (inactive)
NC1=Nc2cc(OCCCCN3Cc4ccccc4C3)c(OCC3CC3)cc2C12CCCC2	growth	-81.4% (active)
COc1cc(-c2nc3sccn3c2-c2ccnc(NCCNS(=O)(=O)c3ccc(Cl)cc3)n2)ccc1F	growth	44.9% (inactive)

Next compound, please.
Qu. Data request, read-out growth, for `CCN1CCN(c2cc(C)nc(N(CCNc3ccnc4cc(Cl)ccc34)Cc3ccc4c(c3)OCO4)n2)CC1`
Ans. -65.6% (active)

###

tested on: NCI-H522 lung; test: NCI-60 one-dose screen, 48 h; conditions: 10 µM unless noted
Compounds without any hit were thinned out: in the full panel of roughly 83,000, 20% have a hit. The source made the active and inactive calls. The calls were made as follows: active = growth percent below 10; inactive = the rest.
Output constraint: value belongs to YES for active, NO for inactive

Here are 5 molecules together with their reported answers.
Molecule	Class label
CC(=O)Oc1ccc(OC(C)=O)c2ccccc12	NO
CC(C)=CCNc1ncnc2c1ncn2C1OC(CO)C(O)C1O (stereo unspecified)	YES
O=C(Nc1ncc(Cc2cc(C(F)(F)F)ccc2Cl)s1)c1cccs1	NO
CCOC(=O)/C=C1\S/C(=N\Nc2cc(=O)[nH]c3ccccc23)N(c2ccccc2)C1=O	NO
Cc1ccc(C=C2C(=O)NC(=O)NC2=O)cc1	NO

Now consider a different molecule.
Qu. What call does the record list for `COc1ccc2c(c1)c(-c1nc(-c3c[nH]c4ncccc34)cs1)cn2CCCN1CCOCC1` ?
Ans. NO

###

In this section, each of the compounds is paired with its reported growth.
System: LOX IMVI melanoma
Assay: NCI-60 one-dose screen, 48 h (100 = growth as untreated, 0 = no growth, -100 = all killed)
Settings: 10 µM unless noted
Protocol: Growth inhibition of the LOX IMVI human tumor cell line is measured as a screen for anti-cancer activity. Cells are grown in 96 well plates and exposed to the test compound for 48 hours. Compounds are tested at a single concentration, which is 10^-5 M for most compounds. The reported endpoint is percent growth (GI% or GIPRCNT), where numbers from 0 - 100% represent growth inhibition, and numbers from -100% - 0 represent cell death. For example, a value of 40 represents 60% growth inhibition. […]
About 83,000 compounds went through this panel and 20% of them were active in at least one assay; those are over-represented in the sample as a whole.
Provide only the numeric value, understood in %.

Known growth results, listed for orientation:
Compound	Measurement unit	growth
O=C(O)COc1ccc(Cl)c(Cl)c1	%	97.9
COc1ccc(C2=CN3CC=CC3CC2=O)cc1 (stereo not drawn)	%	104
O=C(N/N=C\c1ccccc1S(=O)(=O)O)N/N=C/c1ccccc1S(=O)(=O)O	%	102
Cc1ccc(-c2nc(/C=C3/C(=O)Nc4ccc(F)cc43)c3ccccn23)cc1	%	63.8
CC(=O)Oc1ccc(OC(C)=O)c2ccccc12	%	81.2

Qu. Data request, read-out growth, for `O=c1cc(-c2ccccc2)[nH]c2ncc(-c3ccc(F)cc3)n12`
Ans. 65.9

Qu. Data request, read-out growth, for `CCN(CC)Cc1cc(Nc2ccnc3cc(Cl)ccc23)ccc1O`
Ans. 85.8

Qu. Data request, read-out growth, for `CN1C(=O)/C(=C2\SC(=Nc3ccccc3)N(Nc3ccccc3)C2=O)c2ccccc21`
Ans. 93.5

###

In this section, each of the compounds is paired with its reported growth.
system: MDA-MB-435 melanoma; assay: NCI-60 one-dose screen, 48 h (100 = growth as untreated, 0 = no growth, -100 = all killed); conditions: 10 µM unless noted
The panel holds about 83,000 compounds, 20% with a hit somewhere; the sample as a whole holds those more often.
Provide only the numeric value, understood in %.

Known growth results, listed for orientation:
Compound	Tested on	Readout value
Cc1nn(-c2ccccc2)c(N)c1N=C1NC(=O)/C(=C/c2ccc(Br)cc2)S1	MDA-MB-435 melanoma	49.7
O=C(CI)NC(=O)NC(=O)NCc1ccccc1	MDA-MB-435 melanoma	21
CC(=O)OC(c1ccccc1)C1CCOC1=O (centres undefined)	MDA-MB-435 melanoma	96.3
C=CN(C(=O)N1CCN(c2cc3c(cc2F)c(=O)c(C(=O)O)cn3C2CC2)CC1)c1nc(-c2ccc(OC)cc2)cs1	MDA-MB-435 melanoma	19.7
CC1CCN(C(=S)SCC(=O)NC(=O)c2ccccc2)CC1	MDA-MB-435 melanoma	106
COc1ccc(-c2nc(/C=C3\C(=O)N(C)c4ccccc43)c3ccccn23)cc1	MDA-MB-435 melanoma	104

Qu. Data request, read-out growth, for `COc1cc(/C=N/Nc2ccc(Br)cc2)cc(OC)c1OC`
Ans. 39.5

Qu. Data request, read-out growth, for N=c1c(S(=O)(=O)c2ccccc2)cc2c(=O)n3ccccc3nc2n1CC1CCCO1 (centres undefined)
Ans. 109

Qu. Data request, read-out growth, for `Cc1cccc[n+]1C1c2ccccc2-c2ccccc21`
Ans. 102
